Test: Drug excretion in Sprague-Dawley rat feces treated with [14C]brivanib alaninate at 100 mg/kg, po administered as single dose via gavage by HPLC analysis
Assay type: ADME, organism-based
Conditions: in vivo
attribute-measured: Compound recovery (%)

A = Cc1c(O)cn2ncnc(Oc3ccc4[nH]c(CO)cc4c3F)c12
B = Cc1c(OC[C@@H](C)O)cn2ncnc(Oc3ccc4[nH]c(C(=O)O)cc4c3F)c12
IN: Hi there! Just curious which has the higher Compound recovery between A and B . Answer by stating the label of the chosen item.
OUT: B

a = Cc1cc2c(F)c(Oc3ncnn4cc(OS(=O)(=O)O)c(C)c34)ccc2[nH]1
b = Cc1cc2c(F)c(Oc3ncnn4cc(O)c(C)c34)ccc2[nH]1
IN: // select label with min value of measured Compound recovery from [ a , b ] Answer by stating the label of the chosen item.
OUT: a
(a: 4.6%, b: 42.8%)

* * *

Test system: Plasma
Assay: Drug level in Sprague-Dawley rat plasma assessed as compound formation treated with [14C]brivanib alaninate at 100 mg/kg, po administered as single dose via gavage measured after 1 hr by HPLC analysis
Format: ADME, organism-based
Details: in vivo
attribute-measured: Compound recovery (%)

Some entries whose results are on file:
IN: Give the measured Compound recovery of `Cc1c(OS(=O)(=O)O)cn2ncnc(Oc3ccc4[nH]c(C(=O)O)cc4c3F)c12` .
OUT: 18.2

IN: Give the measured Compound recovery of `Cc1cc2c(F)c(Oc3ncnn4cc(OS(=O)(=O)O)c(C)c34)ccc2[nH]1` .
OUT: 30.7

IN: Give the measured Compound recovery of `Cc1cc2c(F)c(Oc3ncnn4cc(OCC(=O)O)c(C)c34)ccc2[nH]1` .
OUT: 4.7

IN: Give the measured Compound recovery of `Cc1c(OC[C@@H](C)O)cn2ncnc(Oc3ccc4[nH]c(C(=O)O)cc4c3F)c12` .
OUT: 5.1

IN: Give the measured Compound recovery of `Cc1cc2c(F)c(Oc3ncnn4cc(OC[C@@H](C)OS(=O)(=O)O)c(C)c34)ccc2[nH]1` .
OUT: 0.5

IN: Give the measured Compound recovery of `Cc1cc2c(F)c(Oc3ncnn4cc(O[C@@H]5O[C@H](C(=O)O)[C@@H](O)[C@H](O)[C@H]5O)c(C)c34)ccc2[nH]1` .
OUT: 5.1

1 = Cc1c(OC[C@@H](C)O)cn2ncnc(Oc3ccc4[nH]c(CO)cc4c3F)c12
2 = Cc1cc2c(F)c(Oc3ncnn4cc(O)c(C)c34)ccc2[nH]1
IN: Hi there! Just curious which has the higher Compound recovery between 1 and 2 . Answer by stating the label of the chosen item.
OUT: 2
(2: 2.4%, 1: 1.5%)

I = Cc1c(OC[C@@H](C)OS(=O)(=O)O)cn2ncnc(Oc3ccc4[nH]c(CO)cc4c3F)c12
II = Cc1cc2c(F)c(Oc3ncnn4cc(OC[C@@H](C)O)c(C)c34)ccc2[nH]1
IN: // select label with min value of measured Compound recovery from [ I , II ] Answer by stating the label of the chosen item.
OUT: I

* * *

Test system: Cynomolgus monkey
Experiment: Drug uptake in cynomolgus monkey plasma treated with [14C]brivanib alaninate assessed as AUC (0 to 12 hrs) of total radio activity at 10 mg/kg, po administered as single oral dose by HPLC analysis
Format: ADME, organism-based, Macaca fascicularis
Details: in vivo
attribute-measured: AUC metabolite/AUC radiolabel (%)

Some entries whose results are on file:
IN: Give the measured AUC metabolite/AUC radiolabel of `Cc1cc2c(F)c(Oc3ncnn4cc(OS(=O)(=O)O)c(C)c34)ccc2[nH]1` .
OUT: 8.1

IN: Give the measured AUC metabolite/AUC radiolabel of `Cc1c(OS(=O)(=O)O)cn2ncnc(Oc3ccc4[nH]c(C(=O)O)cc4c3F)c12` .
OUT: 6.6

I = Cc1c(OC[C@@H](C)O)cn2ncnc(Oc3ccc4[nH]c(C(=O)O)cc4c3F)c12
II = Cc1c(OC[C@@H](C)OS(=O)(=O)O)cn2ncnc(Oc3ccc4[nH]c(CO)cc4c3F)c12
III = Cc1cc2c(F)c(Oc3ncnn4cc(OC[C@@H](C)O)c(C)c34)ccc2[nH]1
IN: Order by AUC metabolite/AUC radiolabel, ascending. API: response body holds the labels in the requested order.
OUT: II, I, III
(II: 4.7%, I: 7.2%, III: 61.4%)

From: ChEMBL document CHEMBL3526109
